Test system: PC-3
Experiment: NCI tumour cell line growth inhibition, 48 h
Activity calls are given as the source filed them. No stated cut-off is given here; in the data, active = GI50 up to about 1.1 µM and inactive = higher.
Give measured GI50 for each item. Keep answers brief.

Lab note: each compound below needs its GI50 filled in.
1. OC(c1ccsc1)c1cc2ccccc2s1 (stereo not given)
2. O=c1cnc2cc3ccccc3cc2[nH]1
3. COc1cc2c(cc1OC)C1=Cc3cc(OC)c(OC)cc3C(C)N1C=C2 (stereo not given)
4. O=C(c1ccccc1)c1ccc2[nH]c(-c3c(Cl)c(Cl)c(Cl)c(Cl)c3C(=O)N/N=C/c3ccc(Cl)cc3)nc2c1
5. CCOC(=O)C(Cc1c(-c2[nH]c3ccccc3c2CC(NC(=O)CNC(C)=O)C(=O)OCC)[nH]c2ccccc12)NC(=O)CNC(C)=O (stereo not given)

Return:
1. > 10 µM (inactive)
2. > 100 µM (inactive)
3. 12.3 µM (inactive)
4. 37 µM (inactive)
5. > 100 µM (inactive)

###

System: HCT-15
Give measured GI50 for each item. Keep answers brief.
Answers are plain numbers, in µM.

Past entries and their recorded results:
COCOCC1CCCN1CN1CCC[C@H]1COCOC (some centres undefined) | 38.3
CC(=O)c1c(C)[n+]([O-])c2cc(Cl)c(Cl)cc2[n+]1[O-] | 12.2

Lab note: each molecule below needs its GI50 filled in.
1. CC#CC(=O)Nc1ccccc1CC(c1c[nH]c2ccccc12)c1c[nH]c2ccccc12
2. CCCCCC(/C=C/C1CCC(=O)C1)OCOCCOC (centres undefined)

Return:
1: 14.3; 2: 31.1

###

Test system: NCI-H23
Assay: NCI tumour cell line growth inhibition, 48 h
The source made the active and inactive calls. No stated cut-off is given here; in the data, active = GI50 up to about 1.1 µM and inactive = higher.
In this exercise, the only acceptable responses are active, inactive

Check out these entries, answers already filled in.
Clc1ccc(N/N=C(\c2ccccc2)c2ccccn2)nc1 | active
S=C(Nc1cccc(C2(N3CCCCC3)CCCCC2)c1)Nc1cccc(C2(N3CCCCC3)CCCCC2)c1 | inactive
COc1ccc(N2C(=O)c3c(c4[nH]c5ccccc5c4c4ccc(C(C)(C)C)cc34)C2=O)cc1 | inactive
COC(=O)C(C(=O)C(=O)Nc1cccc(O)c1)c1nc2ccc(Cl)cc2nc1O (stereo unspecified) | inactive
N#Cc1c(NC(=O)CCC(=O)O)ccc2ccccc12 | inactive

Enquiry: Per the assay record, what outcome was assigned to O=C1CSc2nnc(CCCCCCCCc3nnc4n3NC(=O)CS4)n2N1 ?
Return: inactive

Enquiry: Per the assay record, what outcome was assigned to O=C(COc1ccccc1)NS(=O)(=O)c1ccccc1 ?
Return: inactive

Enquiry: Per the assay record, what outcome was assigned to O=CC1=CCC2c3[nH]c4ccccc4c3CCN2C1 (stereo unspecified) ?
Return: inactive

Enquiry: Per the assay record, what outcome was assigned to CN(C)CCNc1ccc2ncnc3c2c1C(=O)c1ccccc1-3 ?
Return: active

###

System: OVCAR-3
Experiment: NCI tumour cell line growth inhibition, 48 h
Calls of active or inactive are those of the source. No stated cut-off is given here; in the data, active = GI50 up to about 1.1 µM and inactive = higher.
In this exercise, the only acceptable responses are y for active, n for inactive

Check out these entries, answers already filled in.
COc1nc(C)nc2sc3c(c12)CCCC3 | n
CSc1nn(C)cc2nc(C)nc1-2 | n
O=C1CSc2cc([N+](=O)[O-])ccc2N1 | n

Enquiry: Per the assay record, what outcome was assigned to O=C(O)c1ccccc1SCc1cccc2c(=O)c3ccc(Cl)cc3oc12 ?
Return: n

###

Test system: SF-295
Test: NCI tumour cell line growth inhibition, 48 h
Calls of active or inactive are those of the source. Rule as the data show it: active = GI50 up to about 1.1 µM and inactive = higher.
Give measured GI50 for each item. Keep answers brief.

Cc1ccc(/C=C/C(=O)Oc2ccc(/C=C3\CCC/C(=C\c4ccc(OC(=O)/C=C/c5ccc(C)cc5)cc4)C3=O)cc2)cc1 | 25.1 µM (inactive)
O=C(c1ccc(O)c([N+](=O)[O-])c1)c1ccc(O)c([N+](=O)[O-])c1 | 46.3 µM (inactive)
[O-][n+]1c2cccc(O)c2[n+]([O-])c2cccc(O)c21 | 57.9 µM (inactive)
COc1cc(C2c3cc4c(cc3[C@@H](Nc3cccc([N+](=O)[O-])c3)C3COC(=O)[C@H]23)OCO4)cc(OC)c1O (some centres undefined) | 1.36 µM (inactive)
c1ccc(Nc2nnc(CCCCCCCCc3nnc(Nc4ccccc4)o3)o2)cc1 | > 100 µM (inactive)

Lab note: each compound below needs its GI50 filled in.
1. c1ccc(-c2sc(-c3ccccc3)c3c2C2CCC3C2)cc1
2. O=C(O)C1CCCCN1CCc1c[nH]c2ccccc12 (centres undefined)
3. Cn1c2cn[nH]c(=O)c2c2ccc3ccccc3c21
4. C[n+]1c2ccccc2n2c3ccccc3c(NCc3ccco3)c(C#N)c21

Return:
["35.1 µM (inactive)", "> 100 µM (inactive)", "18.9 µM (inactive)", "2.67 µM (inactive)"]

###

Tested on: MDA-N
Assay: NCI tumour cell line growth inhibition, 48 h
Activity calls are given as the source filed them. Rule as the data show it: active = GI50 up to about 1.1 µM and inactive = higher.
In this exercise, the only acceptable responses are t for active, f for inactive

Check out these entries, answers already filled in.
OC(c1ccsc1)c1cc2ccccc2s1 (centres undefined) | f
O=[N+]([O-])c1cccc2nc3ccccc3c(NCCC[N+]3([O-])CCOCC3)c12 | t
COc1nc(C)nc2sc3c(c12)CCCC3 | f
CC(C)=CCNc1ncnc2c1ncn2CCC(=O)O | f
CO[C@H]1C[C@H](n2cc(C)c(=O)[nH]c2=O)O[C@@H]1CO | f

Enquiry: Per the assay record, what outcome was assigned to CCOC(=O)c1cc(NC(=O)N(CCC#N)CCN(C(=O)N[C@@H](Cc2ccccc2)C(=O)N[C@@H](CC(C)C)C(=O)NC)c2ccccc2)ccc1OC ?
Return: f

###

System: BT-549
Assay: NCI tumour cell line growth inhibition, 48 h
Calls of active or inactive are those of the source. Rule as the data show it: active = GI50 up to about 1.1 µM and inactive = higher.
In this exercise, the only acceptable responses are true (1) (active), false (0) (inactive)

Check out these entries, answers already filled in.
C[n+]1c2ccccc2n2c3ccccc3c(NCc3ccco3)c(C#N)c21 | false (0)
O=C1CSc2nnc(CCCCCCCCc3nnc4n3NC(=O)CS4)n2N1 | false (0)

Enquiry: Per the assay record, what outcome was assigned to OB1OCc2ccccc21 ?
Return: false (0)

Enquiry: Per the assay record, what outcome was assigned to OC(Cc1cc(CC(O)(C(F)(F)F)C(F)(F)F)nc(CC(O)(C(F)(F)F)C(F)(F)F)c1)(C(F)(F)F)C(F)(F)F ?
Return: false (0)

Enquiry: Per the assay record, what outcome was assigned to O=C(NC(=O)c1c(F)cccc1F)Nc1cccc(Oc2ncc(Cl)cn2)c1 ?
Return: false (0)

Enquiry: Per the assay record, what outcome was assigned to CN(C)/C=N/c1ccc2[nH]c3ccccc3c2c1 ?
Return: false (0)

Enquiry: Per the assay record, what outcome was assigned to Clc1ccc(CCN(CCc2ccc(Cl)c(Cl)c2)CCN2CCCC2)cc1Cl ?
Return: false (0)

###

Test system: M14
Assay: NCI tumour cell line growth inhibition, 48 h
Active and inactive are the calls of the source. Cut-off read from the data, not from the text of the source: active = GI50 up to about 1.1 µM and inactive = higher.
In this exercise, the only acceptable responses are active, inactive

ON[C@@H]1C=C[C@H](n2cnc3c(NC4CC4)ncnc32)C1 | inactive

Enquiry: Per the assay record, what outcome was assigned to Cc1cccc(-c2nnc(S)[nH]2)c1 ?
Return: inactive

Enquiry: Per the assay record, what outcome was assigned to Clc1ccc(-c2nn3c(COc4cccc(OCc5nnc6sc(-c7ccc(Cl)cc7)nn56)c4)nnc3s2)cc1 ?
Return: inactive

Enquiry: Per the assay record, what outcome was assigned to CO[C@H]1C[C@H](n2cc(C)c(=O)[nH]c2=O)O[C@@H]1CO ?
Return: inactive

Enquiry: Per the assay record, what outcome was assigned to COc1cc(C2c3cc4c(cc3C(=O)C3CCC(=O)N32)OCO4)cc(OC)c1O (stereo not given) ?
Return: inactive

Enquiry: Per the assay record, what outcome was assigned to COc1cc2c(cc1OC)C1=Cc3cc(OC)c(OC)cc3C(C)N1C=C2 (stereo not given) ?
Return: inactive

Enquiry: Per the assay record, what outcome was assigned to Oc1cc(-c2cccc(Cl)c2)nc2ncccc12 ?
Return: active

###

Test system: OVCAR-4
Experiment: NCI tumour cell line growth inhibition, 48 h
Activity calls are given as the source filed them. No stated cut-off is given here; in the data, active = GI50 up to about 1.1 µM and inactive = higher.
In this exercise, the only acceptable responses are Yes = active, No = inactive

Check out these entries, answers already filled in.
CCOC(=O)CCCSCCCC(=O)CCCSCCCC(=O)OCC | No
c1ccc(-c2sc(-c3ccccc3)c3c2C2CCC3C2)cc1 | No
COC(=O)CC(C(C(C)=O)C(=O)OCc1ccccc1)N1C(=O)OCC1c1ccccc1 (stereo not given) | No
CCCCCn1cnc2c1S(=O)(=O)N(C)C(NC(=O)c1ccccc1)=N2 | No
CN(C)/C=N/c1ccc2[nH]c3ccccc3c2c1 | No
CCOC(=O)c1cc(NC(=O)N(CCC#N)CCN(C(=O)N[C@@H](Cc2ccccc2)C(=O)N[C@@H](CC(C)C)C(=O)NC)c2ccccc2)ccc1OC | No
CC(=O)/C(=C/NC(=S)c1cccnc1)C(=O)Nc1ccccc1C | No
ON[C@@H]1C=C[C@H](n2cnc3c(NC4CC4)ncnc32)C1 | No
CC1=CC(=O)[C@@H](O)[C@]2(C)[C@H]3[C@@]4(O)OC[C@@]35[C@@H](C[C@@H]12)OC(=O)C(OC(=O)CC1=CCCC1)[C@H]5[C@@H](C)[C@H]4O (stereo not given in full) | Yes

Field: next compound
Enquiry: Per the assay record, what outcome was assigned to CC1=NN(c2cccc(Cl)c2)C2(C1=Cc1ccccc1)C(Cl)C(=O)N2c1nc2ccccc2s1 (stereo not given) ?
Return: No
